Tested on: UACC-62 melanoma
Assay: NCI-60 one-dose screen, 48 h
Conditions: 10 µM unless noted
This is part of a sample that, as a whole, favours compounds with a hit. Of some 83,000 tested, about 20% had one in any assay. Activity calls are given as the source filed them. How the source made its calls: active means growth percent below 10; inactive means the rest.
Outcome codes: t for active, f for inactive

• Cc1cc(C(=O)Nc2ncnc3nc[nH]c23)no1 = f
• C=Cc1cc[n+](CCCCCCCCCCCC)cc1 = f
• COc1ccc(/C=N/C2=C(C#N)C(c3ccccc3[N+](=O)[O-])c3ccc4ccccc4c3O2)cc1 (configuration not stated) = f
• CCCCCCCCCCCCCCCC(=O)OC[C@@]1(O)C[C@@]23CC[C@@H]4C(C)(C)[C@H](O)CC[C@@]4(C)[C@@H]2CC[C@H]1C3 = f
• O=C(Nc1cccc(C2=NCCN2)c1)c1ccc(OCCCOc2ccc(C(=O)Nc3cccc(C4=NCCN4)c3)cc2)cc1 = t
• Cc1c2c(cc[n+]1Cc1ccccc1)c1ccc(OCc3ccccc3)cc1n2Cc1ccccc1 = t
• CC(C)Cc1ccc(C(C)C(=O)NCc2c[nH]c3ccc(Cl)cc23)cc1 (configuration not stated) = f

###

Listed next: entries and their corresponding growth.
System: SK-OV-3 ovarian
Test: NCI-60 one-dose screen, 48 h (100 = growth as untreated, 0 = no growth, -100 = all killed)
Details: 10 µM unless noted
The panel holds about 83,000 compounds, 20% with a hit somewhere; the sample as a whole holds those more often.
Measured parameter: growth (%)

* CC(c1ccccc1)n1ccnc1CO (stereo not given) | 96.8
* CC(=O)[C@@H]1CC[C@]2(C(N)=O)CC[C@]3(C)[C@H](CC[C@@H]4[C@@]5(C)CCC(=O)C(C)(C)[C@@H]5CC[C@]43C)[C@@H]12 | 90.6
* COc1cc(C2CC(c3cccc(Nc4ccncc4)c3)=NN2C(C)=O)cc(OC)c1OC (stereo not given) | 90.6
* Fc1ccc(C2CC(c3cccc(Nc4ccncc4)c3)=NN2c2ccc(Cl)cc2)cc1 (stereo not given) | 80.9
* CCCCCCN(C)Cc1ccc(OCCOc2ccc(CN(C)CCCCCC)cc2)cc1 | 48.6
